# system tested: human MAGL (Homo sapiens, UniProt Q99685)
# Construct: expressed in transfected cells; host or cells: HEK293T (transient transfection; membrane fraction)
# Sequence (Q99685 1-303): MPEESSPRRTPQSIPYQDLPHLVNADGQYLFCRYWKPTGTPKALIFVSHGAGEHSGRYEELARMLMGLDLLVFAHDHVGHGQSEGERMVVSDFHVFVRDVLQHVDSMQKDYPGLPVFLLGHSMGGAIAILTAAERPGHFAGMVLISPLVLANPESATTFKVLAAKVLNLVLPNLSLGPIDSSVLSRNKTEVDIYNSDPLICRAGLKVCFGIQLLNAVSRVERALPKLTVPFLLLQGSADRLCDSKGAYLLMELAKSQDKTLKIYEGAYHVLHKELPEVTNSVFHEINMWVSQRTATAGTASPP
# procedure details: MAGL activity assay (AA-HNA fluorogenic substrate)
# Format: biochemical
# measurement context: 30 min preincubation, dose-response curve; read-out: IC50 (MAGL, AA-HNA assay)
observed property: pIC50
Reminder that pIC50 means the negative base-10 logarithm of the concentration expressed in mol/L.

*Q* Quick check: pIC50 of O=C(OC(C(F)(F)F)C(F)(F)F)N1CCC(C(O)(c2ccc3c(c2)OCO3)c2ccc3c(c2)OCO3)CC1 [KML29, reference compound] ?
*A* 7.06
